# Test system: UACC-257
# PROCEDURE DETAILS: NCI tumour cell line growth inhibition, 48 h
Active and inactive are the calls of the source. Rule as the data show it: active = GI50 up to about 1.1 µM and inactive = higher.
RECORDED ENDPOINT: GI50

Take a look at these entries with their results.
CCOC(=O)c1ccc(Nc2nc3ccccc3nc2-c2cccs2)cc1    39.8 µM (inactive)
C[N+](C)(C)CC1CCCC/C1=N\O (configuration not stated)    > 100 µM (inactive)
CC(C)N(C(=O)C12CC3CC(CC(C3)C1)C2)C(C)C    > 50 µM (inactive)

Form field GI50, entry COc1cc2c3c(n(C)c(=O)c2cc1OC)-c1cc2c(cc1/C3=C/CCCCBr)OCO2 : > 100 µM (inactive)

GI50 reported for this compound COc1cc(Nc2nc3ccccc3nc2-c2cccs2)cc(OC)c1OC : 28.8 µM (inactive)

Query CC(C)(C)OC(=O)NC(Cc1ccc(OCc2ccccc2)cn1)C(=O)N1CCCCC1 (configuration not stated) yields GI50 of 19.6 µM (inactive)

Recorded result, CNC1Cc2c[nH]c3cccc(c23)C12C=C(C)C(=O)O2 (configuration not stated) , GI50: > 100 µM (inactive)

Data point: CCOC(=O)C(Cc1ccc(O)cc1)Nc1nc(=O)c2c(=O)oc(Cl)cc2o1 (configuration not stated) ; GI50 = 8 µM (inactive)

The value of GI50 measured for the compound CCOC(=O)CC(=O)NC1CC2CCC1(C)C2(C)C (configuration not stated) turned out to be > 100 µM (inactive)

Query COc1cc2nc(-c3cccc(N(C)C)c3)cc(O)c2cc1OC yields GI50 of 5.28 µM (inactive)

Kindly note the recorded GI50 for CC1(C)CC(/C=C2/OC(=O)c3ccccc32)=C(C#N)C(=O)O1 , which is > 100 µM (inactive)

Record C=C1C(=O)OC2(C)CCC1CC1OC1(C)CCC=C(C)CCC2O (configuration not stated) . Reported GI50: > 100 µM (inactive)

Short answer for O=C1NC(N2CCCCC2)=N/C1=C\c1ccccc1O : GI50 was > 100 µM (inactive)

get_value(item= CC(NC(=O)Cc1ccccc1)NC(=O)C(C)C(=O)Nc1ccccc1 (configuration not stated) , readout=GI50) returns > 100 µM (inactive)

GI50 reading for Cc1csc2c(=O)n(C3OC(CO)C(O)C3O)c(=O)[nH]c12 (configuration not stated) : > 100 µM (inactive)

# compound COC(=O)NC1(NC(=O)OC)NC(=O)c2cc(OC)c(OC)c(OC)c2N1 ; its GI50 = > 100 µM (inactive)

// GI50 lookup, compound = COc1cc2c(cc1OC)C(Cl)C(c1ccc(F)cc1)=C2Cl (configuration not stated) , result: 14.9 µM (inactive)
